assay: Fluorescence quantum yield vs Prodan in DMSO as reference; type: physicochemical; conditions: CH2Cl2; excitation 334 nm, 10^-5 M
measuredProperty: QY (fluorescence quantum yield vs Prodan in DMSO (91%))

Here is how some compounds turned out for QY (fluorescence quantum yield vs Prodan in DMSO (91%)).
compound: CC(=O)c1c2c(cc3ccc(N(C)C)cc13)CCC2 [Compound 10]
valueMeasured: 99
//
compound: CC(=O)c1c2c(cc3cc(N(C)C)ccc13)CCC2 [Compound 11]
valueMeasured: 82

P. CCC(=O)c1ccc2cc(N(C)C)ccc2c1 [Prodan, reference compound]
Q. CC(=O)c1c2c(cc3c(N(C)C)cccc13)CCC2 [Compound 12]
Task item: Between P and Q , which one has the lower reported QY (fluorescence quantum yield vs Prodan in DMSO (91%)) value? Reply with the label of the item you choose.
Reply: Q

###

test: Absorption spectra (absorption maxima) of dyes in organic solvents; type: physicochemical; settings: CH2Cl2
measuredProperty: λabs (maximum absorption) (nm)

compound: CC(=O)c1c2c(cc3ccc(N(C)C)cc13)CCC2 [Compound 10]
λabs (maximum absorption) [nm]: 377
--
compound: CC(=O)c1c2c(cc3c(N(C)C)cccc13)CCC2 [Compound 12]
λabs (maximum absorption) [nm]: 334
--
compound: CCC(=O)c1ccc2cc(N(C)C)ccc2c1 [Prodan, reference compound]
λabs (maximum absorption) [nm]: 355
--
compound: CC(=O)c1c2c(cc3cc(N(C)C)ccc13)CCC2 [Compound 11]
λabs (maximum absorption) [nm]: 372

###

assay: Fluorescence quantum yield vs Prodan in DMSO as reference; type: physicochemical; details: Acetonitrile; excitation 334 nm, 10^-5 M
measuredProperty: QY (fluorescence quantum yield vs Prodan in DMSO (91%))

Here is how some compounds turned out for QY (fluorescence quantum yield vs Prodan in DMSO (91%)).
compound: CC(=O)c1c2c(cc3ccc(N(C)C)cc13)CCC2 [Compound 10]
readoutUnit: %
valueMeasured: 99
//
compound: CC(=O)c1c2c(cc3cc(N(C)C)ccc13)CCC2 [Compound 11]
readoutUnit: %
valueMeasured: 18

A. CC(=O)c1c2c(cc3c(N(C)C)cccc13)CCC2 [Compound 12]
B. CCC(=O)c1ccc2cc(N(C)C)ccc2c1 [Prodan, reference compound]
Task item: Between A and B , which one has the lower reported QY (fluorescence quantum yield vs Prodan in DMSO (91%)) value? Reply with the label of the item you choose.
Reply: A

###

assay: Absorption spectra (absorption maxima) of dyes in organic solvents; assay type: physicochemical; conditions: THF
measuredProperty: λabs (maximum absorption) (nm)

molecule: CC(=O)c1c2c(cc3c(N(C)C)cccc13)CCC2 [Compound 12]
valueMeasured: 330
--
molecule: CCC(=O)c1ccc2cc(N(C)C)ccc2c1 [Prodan, reference compound]
valueMeasured: 348
--
molecule: CC(=O)c1c2c(cc3cc(N(C)C)ccc13)CCC2 [Compound 11]
valueMeasured: 370
--
molecule: CC(=O)c1c2c(cc3ccc(N(C)C)cc13)CCC2 [Compound 10]
valueMeasured: 377

###

experiment: Absorption spectra (absorption maxima) of dyes in organic solvents; type: physicochemical; details: DMSO
measuredProperty: λabs (maximum absorption) (nm)

compound: CC(=O)c1c2c(cc3c(N(C)C)cccc13)CCC2
valueMeasured: 334

compound: CC(=O)c1c2c(cc3cc(N(C)C)ccc13)CCC2
valueMeasured: 374

compound: CC(=O)c1c2c(cc3ccc(N(C)C)cc13)CCC2
valueMeasured: 377

compound: CCC(=O)c1ccc2cc(N(C)C)ccc2c1 [Prodan, reference compound]
valueMeasured: 357
